system name: recombinant soluble homotrimeric HA, A/swine/Ontario/01911-2/99 H4N6 (Influenza A virus A/Swine/Ontario/01911-2/99 (H4N6))
assay explanation: microarray, transfection SN IgG, trimeric HA
details: remark: other sources report otherwise
quantity: Trimeric HA Binding: RLU

{"columns": ["binder", "observed measurement"],
 "data": [
  ["TCN-550 (5096_F06) (antibody, V domains shown) VH: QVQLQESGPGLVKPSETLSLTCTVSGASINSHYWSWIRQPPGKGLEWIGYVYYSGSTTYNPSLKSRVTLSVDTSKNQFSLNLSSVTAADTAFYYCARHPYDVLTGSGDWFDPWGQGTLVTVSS VL: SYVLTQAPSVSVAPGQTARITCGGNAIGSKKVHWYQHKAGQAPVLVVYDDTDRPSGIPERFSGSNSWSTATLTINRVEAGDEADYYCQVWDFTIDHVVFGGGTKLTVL", "1700 RLU"],
  ["TCN-552 (5249_I23) (antibody, V domains shown) VH: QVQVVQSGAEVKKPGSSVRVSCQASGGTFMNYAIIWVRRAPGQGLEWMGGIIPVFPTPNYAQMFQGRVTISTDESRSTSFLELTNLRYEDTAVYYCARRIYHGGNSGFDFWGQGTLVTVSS VL: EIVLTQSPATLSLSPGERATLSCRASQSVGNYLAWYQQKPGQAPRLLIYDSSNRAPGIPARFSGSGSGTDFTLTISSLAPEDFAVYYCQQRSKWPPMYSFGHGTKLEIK", "9080 RLU"],
  ["TCN-553 (5261_C18) (antibody, V domains shown) VH: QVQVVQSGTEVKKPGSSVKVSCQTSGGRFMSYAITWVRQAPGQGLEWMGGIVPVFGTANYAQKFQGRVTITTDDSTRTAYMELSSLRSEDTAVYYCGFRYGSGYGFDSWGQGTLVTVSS VL: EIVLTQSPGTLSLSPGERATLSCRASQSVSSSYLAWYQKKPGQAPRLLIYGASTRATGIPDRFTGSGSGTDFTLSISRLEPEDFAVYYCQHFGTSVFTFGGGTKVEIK", "12200 RLU"],
  ["TCN-504 (3251_K17) (antibody, V domains shown) VH: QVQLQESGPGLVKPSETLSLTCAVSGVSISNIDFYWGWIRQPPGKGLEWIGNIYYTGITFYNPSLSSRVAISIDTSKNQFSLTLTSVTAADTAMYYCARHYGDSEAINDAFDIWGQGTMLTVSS VL: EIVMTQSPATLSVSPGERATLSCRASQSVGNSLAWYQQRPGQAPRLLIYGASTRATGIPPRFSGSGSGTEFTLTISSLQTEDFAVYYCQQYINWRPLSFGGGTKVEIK", "54800 RLU"]
]}
